Catalogue of relative viability readings, one per entry.
Test system: SW872
Test: relative viability vs DMSO control (72 h) (fraction); higher = more viable cells
Conditions: 0.3704 µM
Simply state the number, no unit and no words.

>  <molecule>
Cc1[nH]c(/C=C2\C(=O)Nc3ccccc32)c(C)c1CCC(=O)O [Orantinib]

>  <relative viability>
1.04

$$$$
>  <molecule>
Cc1cc(F)c(C(=O)Nc2cccc(-c3nncn3C(C)C)n2)cc1-n1cnc(C2CC2)c1 [Selonsertib]

>  <relative viability>
1.05

$$$$
>  <molecule>
C#Cc1cccc(Nc2ncnc3cc4c(cc23)OCCOCCOCCO4)c1 [Icotinib]

>  <relative viability>
1.07

$$$$

relative viability lookup needed for CCS(=O)(=O)N1CC(CC#N)(n2cc(-c3ncnc4[nH]ccc34)cn2)C1 [Baricitinib] , thanks. 1.03

Can you check O=C(/C=C\n1cnc(-c2cc(C(F)(F)F)cc(C(F)(F)F)c2)n1)NNc1cnccn1 [Selinexor] next? 0.752
